Please go through the items and note down their 3D PSA.
# System: Caco-2
# Measurement Description: Computed polar surface area (PSA) for the compound […]
# Assay type: functional
No unit in the answer, please; the number alone is enough.

Report 3D PSA for COc1ccc(Cn2cc(-c3ccc(OC)cc3)c3c(N)ncnc32)cc1
69.2

Report 3D PSA for Oc1ccc2c(n1)c(-c1ccccc1)cn2Cc1ccccc1
33.4

Report 3D PSA for COc1ccc(-c2cn(Cc3ccccc3)c3ccc(O)nc23)cc1
45

Report 3D PSA for COc1ccc(-c2cn(Cc3ccccc3)c3ncnc(N)c23)cc1
58.2

Report 3D PSA for Nc1ncnc2c1c(-c1ccccc1)cn2Cc1ccccc1
46.6

Report 3D PSA for COc1ccc(Cn2cc(-c3ccc(OC)cc3)c3nc(O)ccc32)cc1
55.1
